target of assay: Ba/F3-Del19/T790M/C797S (Homo sapiens, UniProt P00533, T790M/C797S, cells depend on it, form not given)
Sequence (P00533 with tags, fused parts or gaps DEL746-750/T790M/C797S, form open): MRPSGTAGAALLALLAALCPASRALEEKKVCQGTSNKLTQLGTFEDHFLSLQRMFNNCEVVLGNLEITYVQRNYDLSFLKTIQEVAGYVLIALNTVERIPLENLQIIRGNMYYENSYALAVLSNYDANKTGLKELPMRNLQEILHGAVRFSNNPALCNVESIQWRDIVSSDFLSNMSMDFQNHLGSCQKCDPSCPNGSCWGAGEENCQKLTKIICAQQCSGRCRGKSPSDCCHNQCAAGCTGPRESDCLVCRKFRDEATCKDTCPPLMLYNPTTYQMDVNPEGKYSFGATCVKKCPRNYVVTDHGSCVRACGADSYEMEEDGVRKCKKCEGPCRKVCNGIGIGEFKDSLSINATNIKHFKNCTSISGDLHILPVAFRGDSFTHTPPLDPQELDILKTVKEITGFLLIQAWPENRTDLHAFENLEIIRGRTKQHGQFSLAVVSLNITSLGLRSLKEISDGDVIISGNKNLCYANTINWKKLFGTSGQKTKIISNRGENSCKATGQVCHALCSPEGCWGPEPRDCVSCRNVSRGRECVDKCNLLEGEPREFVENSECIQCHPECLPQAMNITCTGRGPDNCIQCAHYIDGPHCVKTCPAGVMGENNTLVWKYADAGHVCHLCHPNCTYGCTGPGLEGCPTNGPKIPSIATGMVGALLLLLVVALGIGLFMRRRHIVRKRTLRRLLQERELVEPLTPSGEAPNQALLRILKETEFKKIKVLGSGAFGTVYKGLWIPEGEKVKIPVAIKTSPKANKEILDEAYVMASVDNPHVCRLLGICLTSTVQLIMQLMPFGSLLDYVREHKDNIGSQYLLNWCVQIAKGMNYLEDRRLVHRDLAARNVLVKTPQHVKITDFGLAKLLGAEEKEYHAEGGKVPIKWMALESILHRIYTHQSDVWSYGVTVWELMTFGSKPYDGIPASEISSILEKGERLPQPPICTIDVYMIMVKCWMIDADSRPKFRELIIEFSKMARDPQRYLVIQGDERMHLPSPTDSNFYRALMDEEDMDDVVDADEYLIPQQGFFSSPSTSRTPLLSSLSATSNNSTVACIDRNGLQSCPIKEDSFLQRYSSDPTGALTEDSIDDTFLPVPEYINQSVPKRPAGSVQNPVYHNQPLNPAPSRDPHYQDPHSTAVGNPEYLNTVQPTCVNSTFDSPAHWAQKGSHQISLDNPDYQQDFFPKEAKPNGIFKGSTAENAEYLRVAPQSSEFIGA
protocol details: Ba/F3-Del19/T790M/C797S cells proliferation assay (CellTiter Glo)
Type: cell-based
recorded conditions: cell proliferation, 72 h, class symbols; read-out: Ba/F3-Del19/T790M/C797S IC50
value type: GI50

1. CN(C)C1CC2(CCN(c3ccc(Nc4ncc(Cl)c(Nc5ccccc5P(C)(C)=O)n4)cc3F)CC2)C1 [Example 30]	≤ 10 nM
2. COc1cnc(Nc2ccc(N3CC4(CC(N)C4)C3)c(C)c2)nc1Nc1ccccc1P(C)(C)=O [Example 23]	> 50 nM
3. CP(C)(=O)c1ccccc1Nc1nc(Nc2ccc(N3CCC4(CC3)CC(NC3CCCC3)C4)c(Cl)c2)ncc1Cl [Example 31]	10 to 50 nM
4. CN(C)C1CC2(CCN(c3ccc(Nc4ncc(Cl)c(Nc5ccccc5P(C)(C)=O)n4)cc3Cl)CC2)C1 [Example 6]	10 to 50 nM
5. CN(C)C1CC2(CCN(c3ccc(Nc4nccc(Nc5ccccc5P(C)(C)=O)n4)cc3Cl)CC2)C1 [Example 7]	> 50 nM
6. CNC1CCC2(CC1)CN(c1ccc(Nc3ncc(Cl)c(Nc4ccccc4P(C)(C)=O)n3)cc1C)C2 [Example 2]	10 to 50 nM
7. CP(C)(=O)c1ccccc1Nc1nc(Nc2ccc(N3CCC4(CC3)CC(N)C4)c(C(F)(F)F)c2)ncc1Cl [Example 18]	10 to 50 nM

====

target of assay: EGFR L858R/T790M/C797S (Homo sapiens, UniProt P00533, C797S/L858R/T790M)
Sequence (P00533 25-1210 T790M/C797S/L858R): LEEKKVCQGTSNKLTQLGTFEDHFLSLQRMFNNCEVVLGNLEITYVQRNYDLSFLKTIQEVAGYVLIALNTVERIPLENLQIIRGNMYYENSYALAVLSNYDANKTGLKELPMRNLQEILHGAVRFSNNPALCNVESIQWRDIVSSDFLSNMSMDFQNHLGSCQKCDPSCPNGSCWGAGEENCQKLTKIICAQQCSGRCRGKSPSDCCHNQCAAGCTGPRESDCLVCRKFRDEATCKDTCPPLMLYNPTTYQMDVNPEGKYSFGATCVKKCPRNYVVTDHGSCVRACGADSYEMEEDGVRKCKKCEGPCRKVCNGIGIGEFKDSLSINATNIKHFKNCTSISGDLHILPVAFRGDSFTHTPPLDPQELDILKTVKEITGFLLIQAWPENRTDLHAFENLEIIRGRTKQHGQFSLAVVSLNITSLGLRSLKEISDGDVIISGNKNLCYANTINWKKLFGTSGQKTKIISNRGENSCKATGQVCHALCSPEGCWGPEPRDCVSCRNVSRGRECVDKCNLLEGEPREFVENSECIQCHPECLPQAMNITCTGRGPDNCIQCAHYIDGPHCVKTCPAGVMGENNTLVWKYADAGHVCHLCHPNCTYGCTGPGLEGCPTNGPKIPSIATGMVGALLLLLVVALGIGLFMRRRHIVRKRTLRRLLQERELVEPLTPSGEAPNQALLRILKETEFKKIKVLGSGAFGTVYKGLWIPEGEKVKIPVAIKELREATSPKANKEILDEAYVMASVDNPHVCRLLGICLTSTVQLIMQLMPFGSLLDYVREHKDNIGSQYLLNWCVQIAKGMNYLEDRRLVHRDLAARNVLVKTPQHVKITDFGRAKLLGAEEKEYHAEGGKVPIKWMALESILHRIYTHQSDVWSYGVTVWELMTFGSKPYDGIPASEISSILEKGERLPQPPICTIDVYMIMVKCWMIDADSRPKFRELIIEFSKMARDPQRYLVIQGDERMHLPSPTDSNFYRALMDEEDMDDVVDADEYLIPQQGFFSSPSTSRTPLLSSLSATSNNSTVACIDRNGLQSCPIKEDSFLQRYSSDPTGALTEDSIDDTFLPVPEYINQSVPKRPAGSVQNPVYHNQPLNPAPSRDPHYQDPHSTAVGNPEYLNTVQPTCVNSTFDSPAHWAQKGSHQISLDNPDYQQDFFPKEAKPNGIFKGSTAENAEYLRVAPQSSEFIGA
protocol details: Kinase assay (mobility shift), EGFR L858R/T790M/C797S
Assay type: biochemical
recorded conditions: class symbols
Experimental: [Worded in the source for another variant; this variant is reported under the same test.] Test 1 Kinase Assay for EGFR Del19/T790M/C797S and EGFR Wildtype Enzyme reaction protocol are as follows: 1. Preparing 1* Kinase buffer as followed. 2. Preparing Compound Concentration Gradient: Compounds were tested at a concentration of 300 nM, diluted to 100-fold final concentration in 100% DMSO solution in 96-well plates, and compounds were diluted 3 times with Precision, 10 concentrations. […] 11. Read the conversion rate with Caliper EZ Reader. […]
pIC50: −log10 of the molar value.
value type: pIC50

1. Cc1cc(Nc2ncc(C)c(Nc3ccccc3P(C)(C)=O)n2)ccc1N1CC2(CC(N)C2)C1	8.00 to 8.70
2. Cc1cc(Nc2ncc(C#N)c(Nc3ccccc3P(C)(C)=O)n2)ccc1N1CCC2(CC1)CC(N)C2	< 8.00
3. CNC1CCC2(CC1)CN(c1ccc(Nc3ncc(Cl)c(Nc4ccccc4P(C)(C)=O)n3)cc1C)C2	8.00 to 8.70
4. Cc1cc(Nc2ncc(Cl)c(Nc3ccccc3P(C)(C)=O)n2)ccc1N1CC2(CCC(N(C)C)CC2)C1	≥ 8.70

====

target of assay: EGFR Del19/T790M/C797S (Homo sapiens, UniProt P00533, T790M/C797S, form not given)
Sequence (P00533 with tags, fused parts or gaps DEL746-750/T790M/C797S, form open): as the sequence (P00533 with tags, fused parts or gaps DEL746-750/T790M/C797S, form open) above
protocol details: Kinase assay (mobility shift), EGFR Del19/T790M/C797S
pIC50: −log10 of the molar value.
value type: pIC50

1) CN(C)C1CC2(CCN(c3ccc(Nc4ncc(Cl)c(Nc5ccccc5P(C)(C)=O)n4)cc3)CC2)C1 [Example 17]	9.15
2) Cc1cc(Nc2ncc(Cl)c(Nc3ccccc3P(C)(C)=O)n2)ccc1N1CC2(CCC(NC3CC3)CC2)C1 [Example 4]	9.00
3) CN(C)C1CC2(CCN(c3ccc(Nc4ncc(Cl)c(Nc5ccccc5P(C)(C)=O)n4)cc3Cl)CC2)C1 [Example 6]	9.43
